targetOrSystem: UniProtKB P56817
Sequence (P56817 46-501, species assumed): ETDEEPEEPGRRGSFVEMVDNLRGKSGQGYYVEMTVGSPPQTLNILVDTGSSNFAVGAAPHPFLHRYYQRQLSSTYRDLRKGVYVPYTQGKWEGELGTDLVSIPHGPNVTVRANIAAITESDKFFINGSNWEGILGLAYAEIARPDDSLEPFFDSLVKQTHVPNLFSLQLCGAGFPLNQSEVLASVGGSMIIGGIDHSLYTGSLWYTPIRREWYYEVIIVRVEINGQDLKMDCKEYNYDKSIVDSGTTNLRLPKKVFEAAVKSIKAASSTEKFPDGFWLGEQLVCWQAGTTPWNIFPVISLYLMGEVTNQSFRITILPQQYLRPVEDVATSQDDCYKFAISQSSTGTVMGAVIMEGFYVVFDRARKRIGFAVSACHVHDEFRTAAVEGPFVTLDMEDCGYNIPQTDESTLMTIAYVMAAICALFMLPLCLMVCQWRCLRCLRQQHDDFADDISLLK
assayComment: In vitro BACE cell-based assay (Aβ40 in conditioned medium, sandwich ELISA)
readoutName: IC50 (µM)

[I] Cc1cc(OCC#N)cnc1C(=O)Nc1ccc(F)c([C@@]2(C(F)F)N=C(N)O[C@@H]3C[C@@H]32)c1
[II] COC[C@]1(c2cc(NC(=O)c3cnc(OC)cn3)ccc2F)N=C(N)O[C@@H]2C[C@@H]21
[III] Cc1cc(NC(=O)c2ncc(C#N)cc2F)cc([C@@]2(C(F)F)N=C(N)O[C@@H]3C[C@@H]32)c1F
[IV] COc1ccc(C(=O)Nc2ccc(F)c([C@@]3(CF)N=C(N)O[C@@H]4C[C@@H]43)c2F)nc1
[V] NC1=N[C@@](c2cc(NC(=O)COc3ccccc3)ccc2F)(C(F)F)[C@H]2C[C@H]2O1
Input line: Method: rank(items above, key=IC50, ascending=True) # format: label list in the order the request specifies
Output line: III, IV, II, I, V
(III: 0.0123 µM, IV: 0.12 µM, II: 0.183 µM, I: 0.62 µM, V: 2.18 µM)
